measurement.target: T1, soluble Macaca fascicularis CTLA-4 expressed with a C-terminal myc-myc-polyhistidine tag (Macaca fascicularis)
T1 construct: soluble protein; also called mf CTLA-4.mmh; mfCTLA4.mmh
T1 chain: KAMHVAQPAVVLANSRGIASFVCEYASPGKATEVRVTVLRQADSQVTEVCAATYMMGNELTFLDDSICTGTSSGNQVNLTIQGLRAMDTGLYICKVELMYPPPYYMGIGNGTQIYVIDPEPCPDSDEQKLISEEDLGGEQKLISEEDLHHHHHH
measurement.protocol: SPR, mAb capture, 25 C
Reported kon is given for each of the following binders.
# output: bare number, implied unit M⁻¹ s⁻¹

binder	unit.name	kon
H1H19269P (antibody, human IgG1, V domains shown) VH: EVQLVESGGGLVQPGGSLKLSCAASGFTFSGSAMHWVRQASGKGLEWVGRIRGKANSFATAYSASVKGRFTISRDDSKNTASLQMNSLRTEDTAVYFCTREDQQLVRPYYYHYGMDVWGQGTTVTVSS VL: DIQMTQSPSSLSASVGDRVTITCRTSQSITNYLNWYQQKPGKAPKLLIYATASLQSGVPSRFSGSGSETDFTLTISSLQPEDFATYYCQQSYSTPLTFGGGTKVEIK	M⁻¹ s⁻¹	356000
H1H19284P (antibody, human IgG1, V domains shown) VH: EVQLVESGGGLVQPGGSLRLSCAASGFTLSNYVMTWVRQAPGKGLEWVSAISGRGGNSYYADSVKGRFSISRDHSKNTLYLQVNSLRAEDTAVYYCAKAERGYSYGFNWFDPWGQGTLVTVSS VL: DIQMTQSPSSVSASAGDRVTITCRASQGISSWLAWYQQKPGKAPKLLIYAASSLQSGVPSRFSGSGSGTDFTLTISSLQPEDFASYYCQQGNNFPLTFGGGTKVEIK	M⁻¹ s⁻¹	194000

Turning now to a further record.
Reported kon ( H1H19307P (antibody, human IgG1, V domains shown) VH: EVQLVESGGGLVQPGGSLRLACAASGFTFSDYYMDWVRQVPGKGLEWVGRSRDKANSFTTEYVASVKGRFTISREDSKNSVYLQMNSLKTEDTAVYYCARTNYDFSLDVWGQGTTVTVSS VL: DIQMTQSPSSLSASVGDRVTITCRASQDINNYLAWFQQKPGNAPKSLIYAASSLQSGVPSKFSGSGSGTDFTLTISSLQPEDFATYYCQQYSTYPITFGQGTRLEIK ) = 209000
